Origin of the recorded values: patent US20070037752A1

Could you please report measured pIC50 for the items listed next?
Study System: alanyl aminopeptidases (APN) (Homo sapiens, UniProt P15144)
Sequence (P15144 whole entry, species assumed): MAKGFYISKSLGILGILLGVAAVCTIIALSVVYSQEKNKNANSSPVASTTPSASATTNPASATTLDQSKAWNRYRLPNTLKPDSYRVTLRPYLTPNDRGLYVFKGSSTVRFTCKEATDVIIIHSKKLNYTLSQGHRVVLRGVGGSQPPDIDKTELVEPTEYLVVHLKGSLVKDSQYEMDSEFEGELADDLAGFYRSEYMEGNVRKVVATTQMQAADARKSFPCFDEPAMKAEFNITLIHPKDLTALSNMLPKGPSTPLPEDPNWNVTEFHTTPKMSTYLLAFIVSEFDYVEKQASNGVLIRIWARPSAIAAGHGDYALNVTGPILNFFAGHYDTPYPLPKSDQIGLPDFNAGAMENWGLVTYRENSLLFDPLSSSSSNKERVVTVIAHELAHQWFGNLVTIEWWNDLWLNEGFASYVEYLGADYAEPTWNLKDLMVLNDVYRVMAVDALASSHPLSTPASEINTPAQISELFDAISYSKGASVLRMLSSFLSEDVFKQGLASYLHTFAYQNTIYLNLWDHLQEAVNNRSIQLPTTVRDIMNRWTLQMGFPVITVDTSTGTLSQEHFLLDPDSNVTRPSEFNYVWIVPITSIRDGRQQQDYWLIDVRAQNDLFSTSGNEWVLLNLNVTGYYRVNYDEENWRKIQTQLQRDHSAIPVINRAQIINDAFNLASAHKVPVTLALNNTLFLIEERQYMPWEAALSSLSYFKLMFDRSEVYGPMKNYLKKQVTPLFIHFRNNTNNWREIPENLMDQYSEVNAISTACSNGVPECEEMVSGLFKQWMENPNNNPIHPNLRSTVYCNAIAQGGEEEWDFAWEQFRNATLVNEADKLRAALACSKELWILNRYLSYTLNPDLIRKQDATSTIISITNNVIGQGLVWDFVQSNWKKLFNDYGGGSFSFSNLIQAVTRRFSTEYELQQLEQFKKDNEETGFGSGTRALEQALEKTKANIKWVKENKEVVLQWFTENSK
Assay: Inhibition of alanyl aminopeptidase enzymatic activity, fluorogenic substrate (Ala)2-rhodamine 110
Type: biochemical
Cond: Table 4, unstarred values; read-out: IC50APN
Please note pIC50 is a logarithmic value: minus log10 of concentration in mol/L. Answer with that number alone.

[ask] For the compound shown here, CCCCCCCC(=O)N/N=C/c1ccco1 , give the reported pIC50.
[reply] 4.30

[ask] Next record, please: COc1ccc(/C=C(/NC(=O)c2ccccc2)C(=O)N/N=C\C=C\c2ccc(C)o2)cc1OC
[reply] 4.78

[ask] Would you kindly repeat that for Cc1ccc(/C=N/NC(=O)c2cc(O)cc(O)c2)o1 ?
[reply] 4.58

[ask] // repeat for COc1cc(Br)ccc1OCC(=O)N/N=C/c1cc(O)c(O)c(Br)c1Br and report
[reply] 5.30

[ask] // same read-out, input: O=C(N/C=C1/C(=O)Nc2ccc(F)cc21)/C(=C/c1ccccc1)NC(=O)c1ccccc1
[reply] 4.35

[ask] // query: O=C(CCc1ccccc1)N/N=C/c1ccco1
[reply] 4.13

[ask] What do we get for O=C(COc1ccccc1)N/N=C/c1ccco1 ?
[reply] 4.06

[ask] Let us now turn to CCc1ccc(-c2cc(C(=O)N/N=C/c3c(C)nn(-c4ccccc4)c3C)[nH]n2)cc1
[reply] 4.87

[ask] Cool, now CC(C)Oc1ccc(Br)cc1C(=O)N/N=C/c1ccco1
[reply] 4.33

[ask] Now give it for O=C(N/N=C/c1ccco1)c1cccc(NC(=O)c2ccc(F)cc2)c1 too.
[reply] 4.59
